# assayed-target: CHK1 kinase (Homo sapiens, UniProt O14757)
# Construct: purchased Promega V1941
# Sequence (O14757 1-476): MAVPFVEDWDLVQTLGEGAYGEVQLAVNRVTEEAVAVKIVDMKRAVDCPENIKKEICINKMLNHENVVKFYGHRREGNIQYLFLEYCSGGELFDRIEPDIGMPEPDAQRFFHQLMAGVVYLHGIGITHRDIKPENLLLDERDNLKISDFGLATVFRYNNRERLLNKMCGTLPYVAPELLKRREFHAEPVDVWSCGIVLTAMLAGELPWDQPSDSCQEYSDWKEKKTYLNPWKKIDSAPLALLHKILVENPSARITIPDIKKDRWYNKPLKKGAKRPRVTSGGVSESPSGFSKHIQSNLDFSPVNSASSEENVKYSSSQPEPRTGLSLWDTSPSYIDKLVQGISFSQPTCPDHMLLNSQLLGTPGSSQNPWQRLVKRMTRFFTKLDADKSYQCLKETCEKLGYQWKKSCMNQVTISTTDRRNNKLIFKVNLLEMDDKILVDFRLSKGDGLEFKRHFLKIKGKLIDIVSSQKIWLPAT
# method-notes: CHK1 kinase inhibition, ADP-Glo kinase assay
# Format: biochemical
# condition-context: compound concentration 10 nM; ATP 10 μM; CHK1 1 ng/well; read-out: Inh % (inhibitory effect on CHK1 kinase activity)
Task for the reader: assign each of the following molecules its reported inhibition at 0.01 µM.
Expressed in %, but write only the number.

For `COc1cccc(OC[C@H]2CCCNC2)c1-c1cc(Nc2cnc(C#N)cn2)n[nH]1` , what is its reported inhibition at 0.01 µM? 92

For `N#Cc1cnc(Nc2cc(-c3c(OC[C@@H]4CNCCO4)cccc3OC(F)(F)F)[nH]n2)cn1` , what is its reported inhibition at 0.01 µM? 31

For `N#Cc1cnc(Nc2cc(-c3c(F)cc(Cl)cc3OC[C@H]3CCCNC3)[nH]n2)cn1` , what is its reported inhibition at 0.01 µM? 92

For `COc1cccc(OC[C@@H]2CNCCO2)c1-c1cc(Nc2ccc(C#N)nc2)n[nH]1` , what is its reported inhibition at 0.01 µM? 85

For `COc1c(C)ccc(OC[C@H]2CCCNC2)c1-c1cc(Nc2cnc(C#N)cn2)n[nH]1` , what is its reported inhibition at 0.01 µM? 85

For `COc1cccc(OC[C@H]2CCCCN2)c1-c1cc(Nc2cnc(C#N)cn2)n[nH]1` , what is its reported inhibition at 0.01 µM? 97

====

Target protein (sequence): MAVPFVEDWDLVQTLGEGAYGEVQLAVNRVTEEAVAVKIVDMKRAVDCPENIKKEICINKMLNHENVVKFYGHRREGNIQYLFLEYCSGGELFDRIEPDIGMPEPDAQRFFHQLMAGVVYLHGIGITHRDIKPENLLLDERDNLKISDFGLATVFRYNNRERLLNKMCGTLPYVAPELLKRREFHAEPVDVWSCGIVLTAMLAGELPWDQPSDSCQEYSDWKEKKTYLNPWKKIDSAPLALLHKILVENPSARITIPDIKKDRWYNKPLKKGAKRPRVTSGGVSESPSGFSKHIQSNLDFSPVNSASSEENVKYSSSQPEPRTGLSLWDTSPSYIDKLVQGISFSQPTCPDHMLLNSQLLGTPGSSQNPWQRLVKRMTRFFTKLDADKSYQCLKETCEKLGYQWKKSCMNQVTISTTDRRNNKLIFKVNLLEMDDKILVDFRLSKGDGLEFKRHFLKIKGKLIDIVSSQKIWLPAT
observable: pIC50
A value of pIC50 is the negative decimal logarithm of a concentration given in moles per litre.

For `COc1cc(C)cc(OC[C@H]2CCCNC2)c1-c1cc(Nc2cnc(C#N)cn2)n[nH]1` , what is its reported pIC50? 8.93

For `CCOc1cccc(OC[C@H]2CCCNC2)c1-c1cc(Nc2cnc(C#N)cn2)n[nH]1` , what is its reported pIC50? 8.75

For `COc1cccc(OC[C@H]2CCCNC2)c1-c1cc(Nc2cnc(C#N)cn2)n[nH]1` , what is its reported pIC50? 9.01

For `COc1cc(Cl)cc(OC[C@H]2CCCNC2)c1-c1cc(Nc2cnc(C#N)cn2)n[nH]1` , what is its reported pIC50? 9.06

The measured values listed here are drawn from patent US12492197B2.
